For each record, write down the corresponding ratio to parent.
B1: H2-Kb / B16 (parent)
chain 1: QQQVRQSPQSLTVWEGGTTVLTCSYEDSTFNYFPWYQQFPGEGPALLISILSVSDKKEDGRFTTFFNKREKKLSLHIIDSQPGDSATYFCAARGSALGRLHFGAGTQLIVIP
chain 2: EAAVTQSPRSKVAVTGGKVTLSCHQTNNHDYMYWYRQDTGHGLRLIHYSYVADSTEKGDIPDGYKASRPSQENFSLILELASLSQTAVYFCASSDGTNQAPLFGEGTRLSVL
chain 3: not shown
chain 4: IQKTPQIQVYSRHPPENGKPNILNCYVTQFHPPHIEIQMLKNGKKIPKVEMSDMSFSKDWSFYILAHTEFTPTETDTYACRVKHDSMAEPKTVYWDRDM
chain 5: SIINFEKL

# Variants of: B1
# method-notes: % of reporter cells activated (NFAT-GFP), raw; also: test concentration or dose not given here
# setup-conditions: with B16; scale: % of reporter cells activated
Give bare numbers.

Prompt line: Item under review: chain 5 F5M . Reported ratio to parent?
Response line: 1.52

Prompt line: Could you share which ratio to parent value was measured for chain 5 L8N ?
Response line: 0.744

Prompt line: What value of ratio to parent has been reported for the following variant? chain 5 I3K
Response line: 1.44

Prompt line: // query ratio to parent value for entry chain 5 F5S
Response line: 1.27

// input: 7 variants below; output: ratio to parent for each
1. chain 5 L8F
2. chain 5 L8C
3. chain 5 I2N
4. chain 5 F5L
5. chain 5 E6G
6. chain 5 E6A
7. chain 5 L8Y

Response line:
[0.579, 0.996, 1.26, 1.44, 1.23, 1.57, 1.24]

The measurements presented in this section are drawn from paper PMC11480844.
